Cited source for all entries: patent US20240158355A1

Reported pIC50 is given for each of the following compounds.
# test-system: BRDT-BD2 (Homo sapiens (Human))
# procedure-details: AlphaScreen bromodomain proximity assay (competition with biotinylated (+)-JQ1), BRDT-BD2
pIC50: −log10 of the molar value.

| compound-smiles | pIC50 |
| --- | --- |
| COc1ccc(NC(=O)c2ccc3c(c2)c(-c2ccncc2)nn3C)cc1 | 6.01 |
| CNC(=O)c1ccc(C(=O)Nc2cc(NC(=O)c3ccc4c(c3)c(-c3cnc(N)cc3C)nn4C)ccc2C)cc1 | 7.66 |
| Cc1cc(N)ccc1-c1nn(C)c2ccc(-c3cnc(C(F)(F)F)nc3)cc12 | 5.44 |
| Cc1ccc(NC(=O)c2ccc3c(c2)c(-c2ccc(N)cc2C)nn3C)cc1C(N)=O | 7.47 |

----------
# test-system: BRDT-BD2 (Homo sapiens (Human))
# procedure-details: AlphaScreen bromodomain proximity assay (competition with biotinylated (+)-JQ1), BRDT-BD2
pIC50: −log10 of the molar value.

| compound-smiles | test-system | limit-operator | pIC50 |
| --- | --- | --- | --- |
| Cc1ccc(NC(=O)c2ccc3c(c2)c(-c2ccc(N)cc2C)nn3C)cc1 | BRDT-BD2 (Homo sapiens (Human)) | = | 7.04 |
| CNC(=O)c1ccc(C(=O)Nc2cc(NC(=O)c3ccc4c(c3)c(-c3ccc(Cl)cc3)nn4C)ccc2C)cc1 | BRDT-BD2 (Homo sapiens (Human)) | = | 6.97 |
| CC(=O)Nc1cc(NC(=O)c2ccc3c(c2)c(-c2cnc(N)cc2C)nn3C)ccc1C | BRDT-BD2 (Homo sapiens (Human)) | = | 6.90 |
| CNC(=O)c1ccc(C(=O)Nc2cc(NC(=O)c3ccc4c(c3)c(-c3ccc(N)nc3C)nn4C)ccc2C)cc1 | BRDT-BD2 (Homo sapiens (Human)) | = | 7.03 |
| CCn1nc(-c2ccc(N)nc2)c2cc(C(=O)Nc3ccc(C)c(NC(C)=O)c3)ccc21 | BRDT-BD2 (Homo sapiens (Human)) | = | 7.10 |
| COc1ccc(NC(=O)c2ccc3c(c2)c(-c2cc4ccccc4n2C)nn3C)cc1OC | BRDT-BD2 (Homo sapiens (Human)) | = | 7.00 |
| COc1ccc(NC(=O)c2ccc3c(c2)c(-c2cc4ccccc4n2C)nn3C)cc1S(N)(=O)=O | BRDT-BD2 (Homo sapiens (Human)) | = | 6.95 |
| Cc1ccc(NC(=O)c2ccc3c(c2)c(-c2ccc(N)nc2)nn3C)cc1NC(=O)C1CCCCC1 | BRDT-BD2 (Homo sapiens (Human)) | = | 6.95 |
| COc1ccc(NC(=O)c2ccc3c(c2)c(-c2cc4ccccc4n2C)nn3C)cc1I | BRDT-BD2 (Homo sapiens (Human)) | = | 6.30 |
| CNC(=O)c1ccc(C(=O)Nc2cc(NC(=O)c3ccc4c(c3)c(-c3cnc(N)nc3)nn4C)ccc2C)cc1 | BRDT-BD2 (Homo sapiens (Human)) | = | 6.86 |
| COc1ccc(N(C)C(=O)c2ccc3c(c2)c(-c2ccc(N)cc2C)nn3C)cc1 | BRDT-BD2 (Homo sapiens (Human)) | < | 6.00 |
| COc1ccc(NC(=O)c2ccc3c(c2)c(-c2ccncc2C)nn3C)cc1 | BRDT-BD2 (Homo sapiens (Human)) | = | 6.15 |
| CNC(=O)c1ccc(C(=O)Nc2cc(NC(=O)c3ccc4c(c3)c(-c3ccccc3C)nn4C)ccc2OC)cc1 | BRDT-BD2 (Homo sapiens (Human)) | = | 7.21 |
| Cc1cc(N)ccc1-c1nn(C)c2ccc(C(=O)Nc3ccc(OCC4CC4)cc3)cc12 | BRDT-BD2 (Homo sapiens (Human)) | = | 7.01 |
